# Lookup of reported collision cross section keyed by entry
- TEST SUMMARY: collision cross section of modified peptide (TIMS, N2, iRT-aligned); higher = larger / more extended gas-phase ion
- ASSAY CONDITIONS: charge state: 3; modification: Dimethyl (K)

RESIDUES	ENDPOINT UNIT	collision cross section
DASTLQSQKAEGTGDAK [_DASTLQSQK(Dimethyl (K))AEGTGDAK_]	Å²	482.19
ASAISIKLGSSK [_ASAISIK(Dimethyl (K))LGSSK_]	Å²	447.62
IVSGKDYNVTANSK [_IVSGK(Dimethyl (K))DYNVTANSK_]	Å²	462.9
SSFAYKDQNENR [_SSFAYK(Dimethyl (K))DQNENR_]	Å²	455.28
VGIDTPDIDIHGPEGKLK [_VGIDTPDIDIHGPEGK(Dimethyl (K))LK_]	Å²	537.38

* * *

# Lookup of reported collision cross section keyed by entry
- TEST SUMMARY: collision cross section of modified peptide (TIMS, N2, iRT-aligned); higher = larger / more extended gas-phase ion
- ASSAY CONDITIONS: charge state: 2; modification: Crotonyl

RESIDUES	ENDPOINT UNIT	collision cross section
LQAAYAGDKADDIQK [_LQAAYAGDK(Crotonyl)ADDIQK_]	Å²	436.53
VPTTEKPTVTVNFR [_VPTTEK(Crotonyl)PTVTVNFR_]	Å²	427.61
DTPTSAGPNSFNKGK [_DTPTSAGPNSFNK(Crotonyl)GK_]	Å²	412.68
SGNLTEDDKHNNAK [_SGNLTEDDK(Crotonyl)HNNAK_]	Å²	426.1
VLTANSNPSSPSAAKR [_VLTANSNPSSPSAAK(Crotonyl)R_]	Å²	433.68
KFGVLSDNFK [_K(Crotonyl)FGVLSDNFK_]	Å²	376.47
SSGPGGQNVNKVNSK [_SSGPGGQNVNK(Crotonyl)VNSK_]	Å²	407.39
ASNAAVKLAESK [_ASNAAVK(Crotonyl)LAESK_]	Å²	375.99
VNVEAPDVNLEGLGGKLK [_VNVEAPDVNLEGLGGK(Crotonyl)LK_]	Å²	459.79
LEQVEKELLR [_LEQVEK(Crotonyl)ELLR_]	Å²	389.19
PANEKATDDYHYEK [_PANEK(Crotonyl)ATDDYHYEK_]	Å²	442.98
SKHLQEQLNELK [_SK(Crotonyl)HLQEQLNELK_]	Å²	421.79
VDIDAPDVSIEGPDAKLK [_VDIDAPDVSIEGPDAK(Crotonyl)LK_]	Å²	471.19
LTEKELAEAASK [_LTEK(Crotonyl)ELAEAASK_]	Å²	394.89
VFIGNLNTLVVKK [_VFIGNLNTLVVK(Crotonyl)K_]	Å²	413.58
GADFLVTEVENGGSLGSKK [_GADFLVTEVENGGSLGSK(Crotonyl)K_]	Å²	475.14
IISSIEQKEENK [_IISSIEQK(Crotonyl)EENK_]	Å²	407.53
PASGAGAGAGAGKR [_PASGAGAGAGAGK(Crotonyl)R_]	Å²	364.92
FDDTNPEKEEAK [_FDDTNPEK(Crotonyl)EEAK_]	Å²	399.58
PSVGSQSNQAGQGKR [_PSVGSQSNQAGQGK(Crotonyl)R_]	Å²	420.02
TQAYQDQKPGTSGLR [_TQAYQDQK(Crotonyl)PGTSGLR_]	Å²	430.35
ASAISIKLGSSK [_ASAISIK(Crotonyl)LGSSK_]	Å²	374.63
DVNAAIAAIKTK [_DVNAAIAAIK(Crotonyl)TK_]	Å²	406.32

* * *

- TEST SUMMARY: collision cross section of modified peptide (TIMS, N2, iRT-aligned); higher = larger / more extended gas-phase ion
- ASSAY CONDITIONS: charge state: 3; modification: Trimethyl (K)
ASSAY METRIC: collision cross section (Å²)

RESIDUES	RECORDED NUMBER
YEQEHAAIQDKLFQVAK [_YEQEHAAIQDK(Trimethyl (K))LFQVAK_]	561.55
SSFAYKDQNENR [_SSFAYK(Trimethyl (K))DQNENR_]	458.31
TEVLSPNSKVESK [_TEVLSPNSK(Trimethyl (K))VESK_]	479.92
DTGEKLTVAENEAETK [_DTGEK(Trimethyl (K))LTVAENEAETK_]	490.09
LGNDFHTNKR [_LGNDFHTNK(Trimethyl (K))R_]	415.91
VDIDVPDVNIEGPDAKLK [_VDIDVPDVNIEGPDAK(Trimethyl (K))LK_]	538.87
DASTLQSQKAEGTGDAK [_DASTLQSQK(Trimethyl (K))AEGTGDAK_]	482.47
GFALVGVGSEASSKK [_GFALVGVGSEASSK(Trimethyl (K))K_]	489.21
IHNAENIQPGEQKYEYK [_IHNAENIQPGEQK(Trimethyl (K))YEYK_]	526.11
TPNLYIYSKK [_TPNLYIYSK(Trimethyl (K))K_]	442.31

* * *

- TEST SUMMARY: collision cross section of modified peptide (TIMS, N2, iRT-aligned); higher = larger / more extended gas-phase ion
- ASSAY CONDITIONS: charge state: 3; modification: GlyGly (K)
ASSAY METRIC: collision cross section (Å²)

RESIDUES	RECORDED NUMBER
GGPGSTLSFVGKR [_GGPGSTLSFVGK(GlyGly (K))R_]	451.29
VNIGQGSHPQKVK [_VNIGQGSHPQK(GlyGly (K))VK_]	490.21
LDHLAEKFR [_LDHLAEK(GlyGly (K))FR_]	449.01
KYEEIDNAPEER [_K(GlyGly (K))YEEIDNAPEER_]	499.05
LEEVTGKLQVAR [_LEEVTGK(GlyGly (K))LQVAR_]	463.74
GSLEKGSPEDK [_GSLEK(GlyGly (K))GSPEDK_]	425.67

* * *

- TEST SUMMARY: collision cross section of modified peptide (TIMS, N2, iRT-aligned); higher = larger / more extended gas-phase ion
- ASSAY CONDITIONS: charge state: 3; modification: Trimethyl (K)
± gives the standard deviation.
# Lookup of reported collision cross section keyed by entry

RESIDUES	collision cross section
DKALPLEAEVAPVK [_DK(Trimethyl (K))ALPLEAEVAPVK_]	491.82 ± 2.4 Å²
LQDVSGQLSSSKK [_LQDVSGQLSSSK(Trimethyl (K))K_]	475.09 ± 1.5 Å²
SPDEAYAIAKK [_SPDEAYAIAK(Trimethyl (K))K_]	449.09 Å²
LLEQKTQESQK [_LLEQK(Trimethyl (K))TQESQK_]	452.07 ± 1.5 Å²
ASAISIKLGSSK [_ASAISIK(Trimethyl (K))LGSSK_]	448.52 ± 3.3 Å²
DDSFLGKLGGTLAR [_DDSFLGK(Trimethyl (K))LGGTLAR_]	472.67 ± 1.8 Å²
LTSLNVKYNNDK [_LTSLNVK(Trimethyl (K))YNNDK_]	461.22 ± 1.8 Å²
SLKLNTAEDAK [_SLK(Trimethyl (K))LNTAEDAK_]	461.43 ± 2.4 Å²
VLTANSNPSSPSAAKR [_VLTANSNPSSPSAAK(Trimethyl (K))R_]	518.89 ± 1.6 Å²
DYSSGFGGKYGVQADR [_DYSSGFGGK(Trimethyl (K))YGVQADR_]	486.86 ± 1.8 Å²
KFGVLSDNFK [_K(Trimethyl (K))FGVLSDNFK_]	457.56 Å²

* * *

- TEST SUMMARY: collision cross section of modified peptide (TIMS, N2, iRT-aligned); higher = larger / more extended gas-phase ion
- ASSAY CONDITIONS: charge state: 3; modification: Nitro (Y)

RESIDUES	collision cross section (Å²)
YHEDIFGLTLR [_Y(Nitro (Y))HEDIFGLTLR_]	465.92
IYHPNVDK [_IY(Nitro (Y))HPNVDK_]	427.49
DYGNSPLHR [_DY(Nitro (Y))GNSPLHR_]	437.8
SPASDTYIVFGEAK [_SPASDTY(Nitro (Y))IVFGEAK_]	486.92
LAEQEAHYAVR [_LAEQEAHY(Nitro (Y))AVR_]	469.49
HIGFVYHPTK [_HIGFVY(Nitro (Y))HPTK_]	448.27

* * *

- TEST SUMMARY: collision cross section of modified peptide (TIMS, N2, iRT-aligned); higher = larger / more extended gas-phase ion
- ASSAY CONDITIONS: charge state: 2; modification: hydroxyisobutyryl
# label = satisfied if collision cross section >= 400 Å² else not satisfied

RESIDUES	LABEL VALUE
VTLEVGKVIQQGR [_VTLEVGK(hydroxyisobutyryl)VIQQGR_]	satisfied
SGFGKFER [_SGFGK(hydroxyisobutyryl)FER_]	not satisfied
SKHLQEQLNELK [_SK(hydroxyisobutyryl)HLQEQLNELK_]	satisfied
ITGKNQVTATK [_ITGK(hydroxyisobutyryl)NQVTATK_]	not satisfied
ALLQAKASGK [_ALLQAK(hydroxyisobutyryl)ASGK_]	not satisfied
IVFSGNLFQHQEDSKK [_IVFSGNLFQHQEDSK(hydroxyisobutyryl)K_]	satisfied
VNVEAPDVNLEGLGGKLK [_VNVEAPDVNLEGLGGK(hydroxyisobutyryl)LK_]	satisfied
LFVGGIKEDTEEHHLR [_LFVGGIK(hydroxyisobutyryl)EDTEEHHLR_]	satisfied
LAEEENKAK [_LAEEENK(hydroxyisobutyryl)AK_]	not satisfied
IGNSYFKEEK [_IGNSYFK(hydroxyisobutyryl)EEK_]	not satisfied
YEEIVKEVSTYIK [_YEEIVK(hydroxyisobutyryl)EVSTYIK_]	satisfied
SDSGKPYYYNSQTK [_SDSGK(hydroxyisobutyryl)PYYYNSQTK_]	satisfied
DYSAPVNFISAGLKK [_DYSAPVNFISAGLK(hydroxyisobutyryl)K_]	satisfied
LQLEIDQKK [_LQLEIDQK(hydroxyisobutyryl)K_]	not satisfied
LGSPSGKTGTCR [_LGSPSGK(hydroxyisobutyryl)TGTCR_]	not satisfied
ISALQGKLSK [_ISALQGK(hydroxyisobutyryl)LSK_]	not satisfied
GEVGAGAGPGAQAGPSAKR [_GEVGAGAGPGAQAGPSAK(hydroxyisobutyryl)R_]	satisfied
LLIVSTTPYSEKDTK [_LLIVSTTPYSEK(hydroxyisobutyryl)DTK_]	satisfied
ANLEKAQAELVGTADEATR [_ANLEK(hydroxyisobutyryl)AQAELVGTADEATR_]	satisfied

Just for reference, the supplement of paper PMC10598134 is where these values come from.
